The reported measurements were obtained from PubChem BioAssay (NCI).

Assay: NCI Yeast Anticancer Drug Screen. Data for the sgs1 mgt1 strain (AID 161);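 note: 0% = growth of cultures given vehicle only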
Conditions: S. cerevisiae sgs1 mgt1 strain, at 50.0 µM (retest, dose inferred, filed as 5.0)
Procedure: Growth inhibition of yeast strains with defined genetic alterations is measured as a screen for potential anti-cancer activity. Selected strains with alterations in DNA damage repair or cell cycle control were exposed to compounds and growth inhibition was measured relative to vehicle treated controls. The strain used in this assay is sgs1 mgt1
About 79,000 compounds went through this panel and 15% of them were active in at least one assay; those are over-represented in the sample as a whole. The source made the active and inactive calls. Cut-off read from the data, not from the text of the source: active = growth inhibition above about 70%; inactive = the rest.
Outcome codes: t for active, f for inactive

smiles_input: O=[N+]([O-])/C(C(Cl)=C(Cl)Cl)=C(/Sc1ccccc1)N1CCOCC1
assigned_label: t
//
smiles_input: O=C1c2ccccc2-c2ccccc2C(=O)C1(Br)Br
assigned_label: f
//
smiles_input: S=C(N/N=C/c1ccccn1)N1CCCCCC1
assigned_label: t
//
smiles_input: CN(C)C(=O)c1ccc(SC(=S)NCc2ccccc2)cc1
assigned_label: t
//
smiles_input: CC(C)N=C1NS(=O)(=O)c2ccccc21
assigned_label: f
//
smiles_input: COC(=O)[C@H]1O[C@H]1c1ccncc1
assigned_label: f

----------
Test: NCI Yeast Anticancer Drug Screen. Data for the rad50 strain (AID 155);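 note: 0% = growth of vehicle-only cultures of the same strain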
Conditions: S. cerevisiae rad50 strain growth inhibition; at 5.0 µM (retest, dose inferred, filed as 0.5); hits give high values
This is part of a sample that, as a whole, favours compounds with a hit. Of some 79,000 tested, about 15% had one in any assay.
Values of growth inhibition greater than or equal to 30% map to class 1; values below map to class 0.

smiles_input: CN(C)c1ccc(/C=N/N=C(\C#N)[S][Sn]([Cl])([c]2ccccc2)[c]2ccccc2)cc1
assigned_label: class 1
--
smiles_input: N#Cc1c(SCc2ccc(Cl)cc2)nsc1Nc1ccc(Cl)cc1
assigned_label: class 1
--
smiles_input: COC(=O)/C=C1/Nc2ccc(Cl)cc2C(=O)NC1=O
assigned_label: class 1
--
smiles_input: COc1ccc(CN(C)c2c(C)ccc3ccccc23)cc1
assigned_label: class 0

----------
Test: NCI Yeast Anticancer Drug Screen. Data for the cln2 rad14 strain (AID 165);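 note: 0% = growth equal to vehicle treated cultures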
Details: S. cerevisiae cln2 rad14 strain, at 5.0 µM (retest, dose inferred, filed as 0.5), hits give high values
This is part of a sample that, as a whole, favours compounds with a hit. Of some 79,000 tested, about 15% had one in any assay.
growth inhibition overview

molecule: CCCCCCCCCCCCOC(=O)C[n+]1cccc(C(=O)Nc2ccc(Cl)cc2)c1
growth inhibition [%]: 53

molecule: CCN(CC)CCCNc1nccc2c(C)c3[nH]c4ccncc4c3cc12
growth inhibition [%]: 19

molecule: OCC(O)C(O)C(O)C(O)C(O)C(/C=N/Nc1ccccc1)=N/Nc1ccccc1 (stereo not drawn)
growth inhibition [%]: 0

----------
growth inhibition overview
Test: NCI Yeast Anticancer Drug Screen. Data for the bub3 strain (AID 167)
Conditions: S. cerevisiae bub3 mutant strain, at 5.0 µM (retest, dose inferred, filed as 0.5), hits give high values
Compounds without any hit were thinned out: in the full panel of roughly 79,000, 15% have a hit.
measurement_label: growth inhibition (%)

compound: Cn1cc(C2=CC(=O)C=CC2=O)c2ccccc21
test_value: -4
--
compound: CCOc1ncc(Cl)c(OCC)n1
test_value: 1
--
compound: CC(=O)OCC(=O)[C@@]1(O)[C@H](C)C[C@H]2[C@@H]3C=C(C)C4=Cc5c(cnn5-c5ccccc5)C[C@]4(C)[C@@]3(F)[C@@H](O)C[C@@]21C
test_value: -1
--
compound: O=C1c2ccccc2C(O)(C#Cc2ccccc2)c2cnccc21 (stereo not drawn)
test_value: -11
--
compound: CC1CCN(CCC(=O)c2cccc(O)c2)CC1
test_value: -16
--
compound: C/C(=C/c1ccccc1)C(=O)C1C(c2ccccc2)CC(O)C(C)C1c1ccccc1 (stereo not drawn)
test_value: -5
--
compound: CCCCc1ccc2nc(C)cc(N/N=C/c3ccc4c(c3)OCO4)c2c1
test_value: -4
--
compound: CCCCCC(CO)C(O)(C(F)(F)F)C(F)(F)F (stereo not drawn)
test_value: 0
--
compound: CN(C)CC(CN(C)C)C(=O)c1ccc(Oc2ccccc2)cc1
test_value: 69
--
compound: CC(C)(CCBr)[N+](=O)[O-]
test_value: -75
--
compound: CCC[CH2][Sn]([CH2]CCC)([O]C(=O)c1cccc(F)c1)[O]C(=O)c1cccc(F)c1
test_value: -2
--
compound: Cc1cc(-c2ccccc2)nc2nc3ccccc3n12
test_value: 21
--
compound: CC(CN(CC(=O)O)CC(=O)O)N(CC(=O)O)CC(=O)O.[Cl][Pd][Cl] (stereo not drawn)
test_value: 22
